target: human acetyl-CoA carboxylase 2 (ACC2) (Homo sapiens, UniProt O00763); construct: The cDNA encoding amino acids 144 to 2458 of human acetyl-CoA carboxylase 2; made in house; host or cells: Sf9 insect cells (baculovirus, pFastBac1); test: Acetyl-CoA carboxylase enzyme assay (malonyl-CoA formation by LC/MS/MS); format: biochemical; settings: recombinant human ACC2 (aa 144-2458); read-out: IC50 ACC2
Sequence (O00763 144-2458): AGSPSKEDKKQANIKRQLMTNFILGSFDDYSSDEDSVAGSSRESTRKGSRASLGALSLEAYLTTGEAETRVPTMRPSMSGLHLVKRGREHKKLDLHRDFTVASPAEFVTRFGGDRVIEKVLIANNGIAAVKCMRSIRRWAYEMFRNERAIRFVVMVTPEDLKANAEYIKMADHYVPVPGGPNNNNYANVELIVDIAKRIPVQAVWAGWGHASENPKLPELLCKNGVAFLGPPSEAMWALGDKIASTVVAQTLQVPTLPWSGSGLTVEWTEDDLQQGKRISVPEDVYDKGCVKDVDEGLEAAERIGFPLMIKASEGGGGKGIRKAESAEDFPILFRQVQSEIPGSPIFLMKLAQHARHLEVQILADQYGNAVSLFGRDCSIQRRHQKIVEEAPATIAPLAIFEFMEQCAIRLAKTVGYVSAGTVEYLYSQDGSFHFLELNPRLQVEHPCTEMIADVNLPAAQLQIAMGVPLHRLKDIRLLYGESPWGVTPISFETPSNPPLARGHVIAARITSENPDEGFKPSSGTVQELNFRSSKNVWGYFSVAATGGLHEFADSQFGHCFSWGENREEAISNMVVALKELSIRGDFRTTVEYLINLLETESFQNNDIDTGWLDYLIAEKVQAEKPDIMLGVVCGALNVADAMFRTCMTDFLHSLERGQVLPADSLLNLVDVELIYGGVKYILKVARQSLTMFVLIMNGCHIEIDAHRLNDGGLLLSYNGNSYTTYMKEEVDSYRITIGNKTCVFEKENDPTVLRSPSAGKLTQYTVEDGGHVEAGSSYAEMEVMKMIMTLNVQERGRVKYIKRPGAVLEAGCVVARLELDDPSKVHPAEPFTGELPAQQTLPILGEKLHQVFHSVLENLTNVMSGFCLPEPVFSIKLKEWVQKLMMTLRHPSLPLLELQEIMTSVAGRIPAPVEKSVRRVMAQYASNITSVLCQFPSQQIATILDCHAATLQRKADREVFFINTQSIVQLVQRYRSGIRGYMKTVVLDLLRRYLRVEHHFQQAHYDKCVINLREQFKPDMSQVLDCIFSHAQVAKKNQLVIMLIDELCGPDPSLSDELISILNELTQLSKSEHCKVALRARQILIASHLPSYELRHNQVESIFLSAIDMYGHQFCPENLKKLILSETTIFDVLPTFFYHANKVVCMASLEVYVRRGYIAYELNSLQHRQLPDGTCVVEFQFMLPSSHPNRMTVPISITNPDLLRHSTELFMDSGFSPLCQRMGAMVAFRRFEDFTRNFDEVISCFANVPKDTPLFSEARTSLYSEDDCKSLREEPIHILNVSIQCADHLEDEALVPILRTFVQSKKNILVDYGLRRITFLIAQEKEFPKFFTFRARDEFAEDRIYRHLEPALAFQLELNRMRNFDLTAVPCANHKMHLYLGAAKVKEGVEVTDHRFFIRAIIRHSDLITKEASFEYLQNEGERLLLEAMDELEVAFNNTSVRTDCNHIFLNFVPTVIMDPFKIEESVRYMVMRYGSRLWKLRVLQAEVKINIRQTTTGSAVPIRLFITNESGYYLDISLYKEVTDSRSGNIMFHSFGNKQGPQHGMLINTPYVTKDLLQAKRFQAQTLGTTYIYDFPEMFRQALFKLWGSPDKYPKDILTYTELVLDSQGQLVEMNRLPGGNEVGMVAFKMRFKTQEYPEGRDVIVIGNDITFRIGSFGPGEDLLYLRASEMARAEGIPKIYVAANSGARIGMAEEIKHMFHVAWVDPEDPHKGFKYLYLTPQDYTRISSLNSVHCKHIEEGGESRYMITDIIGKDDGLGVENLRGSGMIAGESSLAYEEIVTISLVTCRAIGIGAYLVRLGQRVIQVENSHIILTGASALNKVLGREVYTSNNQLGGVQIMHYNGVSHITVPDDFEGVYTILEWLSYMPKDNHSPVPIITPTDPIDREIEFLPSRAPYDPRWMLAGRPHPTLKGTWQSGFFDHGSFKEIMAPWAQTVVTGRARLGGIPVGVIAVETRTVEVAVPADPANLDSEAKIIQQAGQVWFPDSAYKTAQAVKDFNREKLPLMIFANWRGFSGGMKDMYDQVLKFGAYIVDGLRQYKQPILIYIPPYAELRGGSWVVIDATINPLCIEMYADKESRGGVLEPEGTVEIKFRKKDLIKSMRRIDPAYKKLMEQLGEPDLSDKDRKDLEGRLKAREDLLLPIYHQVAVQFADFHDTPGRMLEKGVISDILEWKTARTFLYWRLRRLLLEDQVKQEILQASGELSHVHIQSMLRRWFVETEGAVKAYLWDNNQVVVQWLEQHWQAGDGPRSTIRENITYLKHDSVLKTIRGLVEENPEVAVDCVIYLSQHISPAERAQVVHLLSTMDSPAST
pIC50: −log10 of the molar value.
measure.name: pIC50

# compound, measured
data = [
    ("C[C@@H](NC(=O)[C@H]1CC[C@H](NS(=O)(=O)c2ccc3c(c2)N(C)CCO3)CC1)c1ccc(F)cc1", 7.42),
    ("CCOc1ccc2cc(S(=O)(=O)N[C@H]3CC[C@H](C(=O)N[C@H](C)c4ccccn4)CC3)ccc2n1", 6.07),
    ("C[C@@H](NC(=O)[C@H]1CC[C@H](NS(=O)(=O)c2cnc3ccccc3c2)CC1)c1ccc(Cl)cc1", 6.95),
    ("O=C([C@H]1CC[C@H](NS(=O)(=O)c2cnc3c(c2)NCCS3)CC1)N1CCOCC1c1ccccc1 (stereo partly shown)", 7.82),
    ("C[C@@H](NC(=O)[C@H]1CC[C@H](NS(=O)(=O)c2ccc3cc(-c4c(Cl)cccc4Cl)[nH]c3c2)CC1)c1ccc(F)cc1", 6.32),
    ("COC(=O)c1ccc(-c2nc3cc(S(=O)(=O)N[C@H]4CC[C@H](c5nnc(C(C)(C)C)o5)CC4)ccc3[nH]2)cc1", 6.06),
    ("Cn1c(C2CC2)cc2ccc(S(=O)(=O)N[C@H]3CC[C@H](C(=O)N[C@@H](CO)C4CC4)CC3)cc21", 6.44),
]

----------
Biological target: human acetyl-CoA carboxylase 2 (ACC2) (Homo sapiens, UniProt O00763)
Construct: The cDNA encoding amino acids 144 to 2458 of human acetyl-CoA carboxylase 2; made in house; host or cells: Sf9 insect cells (baculovirus, pFastBac1)
Experiment: Acetyl-CoA carboxylase enzyme assay (malonyl-CoA formation by LC/MS/MS)
Assay type: biochemical
Settings: recombinant human ACC2 (aa 144-2458); read-out: IC50 ACC2
Description: The cDNA encoding amino acids 144 to 2458 of human acetyl-CoA carboxylase 2 (ACC2, GenBank Accession #NM_001093) was cloned into the SalI and NotI sites of pFastBac1 (Invitrogen; Carlsbad, Calif.). The resulting plasmid was used to generate a recombinant ACC2 baculovirus that was amplified and titered according to the protocols in the Bac-to-Bac baculovirus expression system manual (Invitrogen). […]
Some compounds, each annotated with its measured IC50.

# compound, comparison.sign, IC50 [nM]
rows = [
    ("Cn1c(C2CC2)c(C#N)c2ccc(S(=O)(=O)N[C@H]3CC[C@H](C(=O)N4CCCCC4)CC3)cc21", "=", 210),
    ("CC(C)c1nnc([C@H]2CC[C@H](NS(=O)(=O)c3ccc4[nH]c(Nc5ccc(N6CCOCC6)cc5)nc4c3)CC2)o1", "=", 270),
    ("C[C@@H](NC(=O)[C@H]1CC[C@H](NS(=O)(=O)c2ccc3[nH]c(-c4ccccc4)cc3c2)CC1)c1ccc(F)cc1", "=", 45),
    ("C[C@@H](NC(=O)[C@H]1CC[C@H](NS(=O)(=O)c2ccc3[nH]c(-c4ccc(CN5CCN(C)CC5)cc4)nc3c2)CC1)c1ccccc1", "<", 10),
    ("C[C@@H](NC(=O)C12CCC(NS(=O)(=O)c3cnc4c(c3)NCCN4)(CC1)CC2)c1ccc(F)cc1", "=", 165),
    ("CCN(CC)c1ccc(Nc2nc3cc(S(=O)(=O)Nc4ccc(C(=O)OC(C)C)cc4)ccc3[nH]2)cc1", "=", 290),
    ("CC(C)(C)OC(=O)N1CCN(C(=O)C2CCC(NS(=O)(=O)c3ccc4c(c3)CCCN4)CC2)C(c2ccccc2)C1 (stereo not shown)", "=", 75),
]
